Molecular target: MBP-FoxP1dN (Mus musculus, UniProt P58462 326-579)
Sequence: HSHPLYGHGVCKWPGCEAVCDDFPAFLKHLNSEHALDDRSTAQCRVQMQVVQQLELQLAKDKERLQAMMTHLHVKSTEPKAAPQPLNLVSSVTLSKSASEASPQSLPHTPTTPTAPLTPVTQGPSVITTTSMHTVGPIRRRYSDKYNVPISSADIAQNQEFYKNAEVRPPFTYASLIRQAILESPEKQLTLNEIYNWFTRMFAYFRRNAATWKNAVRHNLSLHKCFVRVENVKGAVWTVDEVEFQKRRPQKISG
Assay: PD-seq (MBP pull-down with sequencing); 20 mM Tris-HCl pH 7.5, 100 mM NaCl, 1.5 mM MgCl2, 0.4 uM protein, 0.1 uM dsDNA library, 30 min, room temperature, amylose pull-down; high values mean tight binding
Settings: protein: recombinant; tags: His6-MBP; chain copies: 2; dsDNA, one strand shown
In all, about 16,000 sequences were measured (“rpm ratio (pull-down/input)”: median about 0.94, highest 2% from about 1.7 on). This excerpt belongs to a sample that is enriched for the highest values.
measurement_name: binding signal

The recorded binding signal for GATGATTGTTCTCCCAGCTGATGAATTAACAATATCGAGTAAACAAATTTTCCTAATCTTTCTGTTCAAGCGCCATCTAC is 1.87 RPM ratio (pull-down/input)

So, GATGATTGTTCTCCCAGCTGATGAATTAAACAGATCGAGTAAACAAATTTTCCTAATCTTTCTGTTCAAGCGCCATCTAC ? Its binding signal was 1.27 RPM ratio (pull-down/input)

# binding signal (sequence: GATGATTGTTCTCCCAGCTGATGAATTATCAATATCGAGTAAACAAATTTTCCTAATCTTTCTGTTCAAGCGCCATCTAC ) is 1.96 RPM ratio (pull-down/input)

Lookup result for GATGATTGTTCTCCCAGCTGATGAATTTGCAATATCGAGTAAACAAATTTTCCTAATCTTTCTGTTCAAGCGCCATCTAC ; measured binding signal: 1.34 RPM ratio (pull-down/input)

Please fill in: binding signal reported for GATGATTGTTCTCCCAGCTGATGAATTAACGAAGTCGAGTAAACAAATTTTCCTAATCTTTCTGTTCAAGCGCCATCTAC = 0.89 RPM ratio (pull-down/input)

Record GATGATTGTTCTCCCAGCTGATGAATTAATAATATCGAGTAAACAAATTTTCCTAATCTTTCTGTTCAAGCGCCATCTAC , field binding signal: 1.51 RPM ratio (pull-down/input)

binding signal measured on GATGATTGTTCTCCCAGCTGATGAATTTCCAATATCGAGTAAACAAATTTTCCTAATCTTTCTGTTCAAGCGCCATCTAC = 1.02 RPM ratio (pull-down/input)

sequence GATGATTGTTCTCCCAGCTGATGAATTATGAATATCGAGTAAACAAATTTTCCTAATCTTTCTGTTCAAGCGCCATCTAC , binding signal observed: 1.07 RPM ratio (pull-down/input)

Per the records, this sequence ( GATGATTGTTCTCCCAGCTGATGAATTACTCGTCTCGAGTAAACAAATTTTCCTAATCTTTCTGTTCAAGCGCCATCTAC ) has binding signal equal to 0.904 RPM ratio (pull-down/input)

# sequence GATGATTGTTCTCCCAGCTGATGAATTCCACCACTCGAGTAAACAAATTTTCCTAATCTTTCTGTTCAAGCGCCATCTAC ; its binding signal = 0.844 RPM ratio (pull-down/input)

So for GATGATTGTTCTCCCAGCTGATGAATTTGTACGCTCGAGTAAACAAATTTTCCTAATCTTTCTGTTCAAGCGCCATCTAC , the logged binding signal turned out to be 1.13 RPM ratio (pull-down/input)

Lab note: GATGATTGTTCTCCCAGCTGATGAATTGTCAATATCGAGTAAACAAATTTTCCTAATCTTTCTGTTCAAGCGCCATCTAC gave binding signal of 2.23 RPM ratio (pull-down/input)

sequence GATGATTGTTCTCCCAGCTGATGAATTTCTATAATCGAGTAAACAAATTTTCCTAATCTTTCTGTTCAAGCGCCATCTAC , binding signal observed: 1.1 RPM ratio (pull-down/input)

Form field binding signal, entry GATGATTGTTCTCCCAGCTGATGAATTAAAAATATCGAGTAAACAAATTTTCCTAATCTTTCTGTTCAAGCGCCATCTAC : 1.35 RPM ratio (pull-down/input)

For record GATGATTGTTCTCCCAGCTGATGAATTACCATTGTCGAGTAAACAAATTTTCCTAATCTTTCTGTTCAAGCGCCATCTAC the listed binding signal is 1.04 RPM ratio (pull-down/input)

* * *

Target: MBP-FoxP1dN (Mus musculus, UniProt P58462 326-579)
Sequence: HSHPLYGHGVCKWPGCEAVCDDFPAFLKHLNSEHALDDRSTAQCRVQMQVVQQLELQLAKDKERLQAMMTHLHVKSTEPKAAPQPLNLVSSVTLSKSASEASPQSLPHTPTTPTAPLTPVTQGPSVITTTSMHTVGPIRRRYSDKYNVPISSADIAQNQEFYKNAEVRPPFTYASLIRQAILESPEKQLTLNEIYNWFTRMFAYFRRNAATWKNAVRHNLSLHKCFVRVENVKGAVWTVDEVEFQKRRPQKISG
Test: PD-seq (MBP pull-down with sequencing); 20 mM Tris-HCl pH 7.5, 100 mM NaCl, 1.5 mM MgCl2, 0.4 uM protein, 0.1 uM dsDNA library, 30 min, room temperature, amylose pull-down; high values mean tight binding
Settings: protein: recombinant; tags: His6-MBP; chain copies: 2; dsDNA, one strand shown
In all, about 16,000 sequences were measured (“rpm ratio (pull-down/input)”: median about 0.94, highest 2% from about 1.7 on). The sample holds the highest values, similar sequences and a random draw of the others, so the mix is not that of the screen.
measurement_name: binding signal

So for GATGATTGTTCTCCCAGCTGATGAATTGTCGCTGTCGAGTAAACAAATTTTCCTAATCTTTCTGTTCAAGCGCCATCTAC , the logged binding signal turned out to be 1.02 RPM ratio (pull-down/input)

Lookup result for GATGATTGTTCTCCCAGCTGATGAATTCCTGTGTTCGAGTAAACAAATTTTCCTAATCTTTCTGTTCAAGCGCCATCTAC ; measured binding signal: 1.26 RPM ratio (pull-down/input)

Per the records, this sequence ( GATGATTGTTCTCCCAGCTGATGAATTAACAGTTTCGAGTAAACAAATTTTCCTAATCTTTCTGTTCAAGCGCCATCTAC ) has binding signal equal to 1.09 RPM ratio (pull-down/input)

binding signal recorded for this sequence, GATGATTGTTCTCCCAGCTGATGAATTTTATTGTTCGAGTAAACAAATTTTCCTAATCTTTCTGTTCAAGCGCCATCTAC , is 2.31 RPM ratio (pull-down/input)

// GATGATTGTTCTCCCAGCTGATGAATTCCCTACCTCGAGTAAACAAATTTTCCTAATCTTTCTGTTCAAGCGCCATCTAC : binding signal value = 0.836 RPM ratio (pull-down/input)

So, GATGATTGTTCTCCCAGCTGATGAATTCGTTATTTCGAGTAAACAAATTTTCCTAATCTTTCTGTTCAAGCGCCATCTAC ? Its binding signal was 1.14 RPM ratio (pull-down/input)

The value of binding signal measured for the sequence GATGATTGTTCTCCCAGCTGATGAATTATATTCCTCGAGTAAACAAATTTTCCTAATCTTTCTGTTCAAGCGCCATCTAC turned out to be 0.968 RPM ratio (pull-down/input)

binding signal measured on GATGATTGTTCTCCCAGCTGATGAATTTATTTGTTCGAGTAAACAAATTTTCCTAATCTTTCTGTTCAAGCGCCATCTAC = 2.15 RPM ratio (pull-down/input)

Summary for this sequence, GATGATTGTTCTCCCAGCTGATGAATTTTGGATGTCGAGTAAACAAATTTTCCTAATCTTTCTGTTCAAGCGCCATCTAC : binding signal is 0.849 RPM ratio (pull-down/input)

For GATGATTGTTCTCCCAGCTGATGAATTCTAAACATCGAGTAAACAAATTTTCCTAATCTTTCTGTTCAAGCGCCATCTAC the sequence record lists binding signal as 2.07 RPM ratio (pull-down/input)

// binding signal lookup, sequence = GATGATTGTTCTCCCAGCTGATGAATTTATGATTTCGAGTAAACAAATTTTCCTAATCTTTCTGTTCAAGCGCCATCTAC , result: 1.37 RPM ratio (pull-down/input)

Entry GATGATTGTTCTCCCAGCTGATGAATTCTTATGTTCGAGTAAACAAATTTTCCTAATCTTTCTGTTCAAGCGCCATCTAC ; binding signal = 1.21 RPM ratio (pull-down/input)

Lookup result for GATGATTGTTCTCCCAGCTGATGAATTCAAAACATCGAGTAAACAAATTTTCCTAATCTTTCTGTTCAAGCGCCATCTAC ; measured binding signal: 1.99 RPM ratio (pull-down/input)

binding signal in this record for GATGATTGTTCTCCCAGCTGATGAATTCACAACATCGAGTAAACAAATTTTCCTAATCTTTCTGTTCAAGCGCCATCTAC : 2.11 RPM ratio (pull-down/input)

Consider GATGATTGTTCTCCCAGCTGATGAATTCTATTGTTCGAGTAAACAAATTTTCCTAATCTTTCTGTTCAAGCGCCATCTAC . Its measured binding signal is 1.99 RPM ratio (pull-down/input)

Reported binding signal of GATGATTGTTCTCCCAGCTGATGAATTGGACGTGTCGAGTAAACAAATTTTCCTAATCTTTCTGTTCAAGCGCCATCTAC : 0.855 RPM ratio (pull-down/input)

sequence GATGATTGTTCTCCCAGCTGATGAATTGAAAACATCGAGTAAACAAATTTTCCTAATCTTTCTGTTCAAGCGCCATCTAC , binding signal observed: 1.8 RPM ratio (pull-down/input)

Per the record, GATGATTGTTCTCCCAGCTGATGAATTAATTACATCGAGTAAACAAATTTTCCTAATCTTTCTGTTCAAGCGCCATCTAC has binding signal of 1.26 RPM ratio (pull-down/input)

Entry GATGATTGTTCTCCCAGCTGATGAATTCTCCTATTCGAGTAAACAAATTTTCCTAATCTTTCTGTTCAAGCGCCATCTAC — recorded binding signal = 0.943 RPM ratio (pull-down/input)

// binding signal value for GATGATTGTTCTCCCAGCTGATGAATTGTGTTATTCGAGTAAACAAATTTTCCTAATCTTTCTGTTCAAGCGCCATCTAC : 2.18 RPM ratio (pull-down/input)

Value of measured binding signal for the entry GATGATTGTTCTCCCAGCTGATGAATTTTTTATTTCGAGTAAACAAATTTTCCTAATCTTTCTGTTCAAGCGCCATCTAC : 1.04 RPM ratio (pull-down/input)

Looking up GATGATTGTTCTCCCAGCTGATGAATTCTAAAAATCGAGTAAACAAATTTTCCTAATCTTTCTGTTCAAGCGCCATCTAC , I see its binding signal listed as 0.995 RPM ratio (pull-down/input)

For record GATGATTGTTCTCCCAGCTGATGAATTAGCGACCTCGAGTAAACAAATTTTCCTAATCTTTCTGTTCAAGCGCCATCTAC the listed binding signal is 0.762 RPM ratio (pull-down/input)

Value of measured binding signal for the entry GATGATTGTTCTCCCAGCTGATGAATTTGATTATTCGAGTAAACAAATTTTCCTAATCTTTCTGTTCAAGCGCCATCTAC : 1.2 RPM ratio (pull-down/input)

get_value(item= GATGATTGTTCTCCCAGCTGATGAATTCTATTTTTCGAGTAAACAAATTTTCCTAATCTTTCTGTTCAAGCGCCATCTAC , readout=binding signal) returns 1.61 RPM ratio (pull-down/input)

binding signal in this record for GATGATTGTTCTCCCAGCTGATGAATTACTAAAATCGAGTAAACAAATTTTCCTAATCTTTCTGTTCAAGCGCCATCTAC : 1.34 RPM ratio (pull-down/input)

get_value(item= GATGATTGTTCTCCCAGCTGATGAATTACCAACATCGAGTAAACAAATTTTCCTAATCTTTCTGTTCAAGCGCCATCTAC , readout=binding signal) returns 1.94 RPM ratio (pull-down/input)

// sample GATGATTGTTCTCCCAGCTGATGAATTCAACACATCGAGTAAACAAATTTTCCTAATCTTTCTGTTCAAGCGCCATCTAC , its binding signal was 1.3 RPM ratio (pull-down/input)

Noted for GATGATTGTTCTCCCAGCTGATGAATTAAGCCTATCGAGTAAACAAATTTTCCTAATCTTTCTGTTCAAGCGCCATCTAC : its binding signal reads 0.873 RPM ratio (pull-down/input)
